# Assay Target: T1, P6-AA-12HAA-R
# T1 chain: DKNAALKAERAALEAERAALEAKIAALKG
# Assay Name: two-hybrid library CCmax;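 further: natural log of median RNA to DNA barcode read ratio; higher means stronger binding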
# Condition: mean of both orientations
Readout: interaction score
Give bare numbers.

Below: 5 binders and their reported interaction score.
INSERT INTO assay_data (binder, quantitative_readout) VALUES
  ('DENAALEAKNAALKAKNAALKAEIAALEG [P5-AA-1HAA-N]', -0.112),
  ('DENAALEAKKAALKAKKAALKAEIAALEG [P5-AA-12HAA-K]', -1.57),
  ('DENAALEAKSAALKAKSAALKAEIAALEG [P5-AA-12HAA-S]', -1.81),
  ('DENAALEAKTAALKAKTAALKAEIAALEG [P5-AA-12HAA-T]', -1.74),
  ('DENAALEAKDAALKAKDAALKAEIAALEG [P5-AA-12HAA-D]', -1.55);

Proceed to the following item.
The recorded interaction score for entry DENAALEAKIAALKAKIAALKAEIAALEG [4H1385-AA] equals 1.72
